Origin of measurements: PubChem BioAssay (NCI)

Quick reference: growth of the listed items.
- Tested on: DU-145 prostate
- experimentalDetails: NCI-60 one-dose screen, 48 h (100 = growth as untreated, 0 = no growth, -100 = all killed)
- condition: 10 µM unless noted
Compounds without any hit were thinned out: in the full panel of roughly 83,000, 20% have a hit.
experimentalEndpoint: growth (%)

>  <compound>
CN1CCN(c2ccc(N3Cc4ccccc4OC4=C3C(=O)c3c(O)ccc(O)c3C4=O)cn2)CC1

>  <testResult>
-95.9

$$$$
>  <compound>
c1ccc(-c2[nH]c3ccccc3c2-c2ccccc2)cc1

>  <testResult>
99.7

$$$$
>  <compound>
Cc1nn(-c2ccc(Cl)cc2)c(=O)n1CCN1CCOCC1

>  <testResult>
78.5

$$$$
>  <compound>
CCCCCNCCCCCNc1cc(OC)cc2cccnc12

>  <testResult>
104

$$$$
>  <compound>
COc1ccc(/C(=C\c2ccc3c(c2)OCO3)C(=O)Nc2nc3ccc(F)cc3s2)cc1OC

>  <testResult>
98.2

$$$$
>  <compound>
O=C(O)c1ccccc1N=Cc1ccccc1

>  <testResult>
108

$$$$
>  <compound>
COc1ccc2[nH]c(O)c(/C=c3/ccc4c(c3)N=C(c3ccc(C(F)(F)F)cc3)N=4)c2c1

>  <testResult>
86.6

$$$$
>  <compound>
Oc1ccc(-c2cnc(-c3ccccc3)[nH]2)c(O)c1

>  <testResult>
157

$$$$
>  <compound>
CCCCc1n(Cc2ccc3ccccc3n2)cc[n+]1Cc1ccc2ccccc2n1

>  <testResult>
40.8

$$$$
>  <compound>
C=C(CN1CC=CCC1)[C@@H]1CC[C@]2(C(=O)OC)CC[C@]3(C)[C@H](CC[C@@H]4[C@@]5(C)CC[C@H](OC(C)=O)C(C)(C)[C@@H]5CC[C@]43C)[C@@H]12

>  <testResult>
107

$$$$
>  <compound>
O=C1c2ccccc2C(=O)c2c1oc1ccc3ccccc3c21

>  <testResult>
85.7

$$$$
>  <compound>
C/C(=N\NC(=S)Nc1ccccc1)c1ccccn1

>  <testResult>
57.5

$$$$
>  <compound>
N#Cc1nc(-c2ccc(Cl)cc2)cc(-c2ccc(Nc3nc(N4CCCCC4)nc(N4CCCCC4)n3)cc2)c1N

>  <testResult>
105

$$$$
>  <compound>
COc1ccc2[nH]c(O)c(/C=c3/ccc4c(c3)N=C(c3ccc(F)cc3)N=4)c2c1

>  <testResult>
67.6

$$$$
>  <compound>
CCC(=O)NC(O)C(Cl)(Cl)C(C)Cl (stereo unspecified)

>  <testResult>
116

$$$$
>  <compound>
NS(=O)(=O)c1ccc(N2N=C(c3cccs3)CC2c2ccccc2O)cc1 (stereo unspecified)

>  <testResult>
-45

$$$$
>  <compound>
Fc1ccc(-c2ccnc3nc(-c4ccncc4)nn23)cc1

>  <testResult>
101

$$$$
>  <compound>
O=Cc1ccc2nc(C(Cl)(Cl)Cl)ccc2c1

>  <testResult>
102

$$$$
>  <compound>
Cc1cc(C)c2c(n1)sc1c(Nc3ccc(Cl)cc3Cl)ncnc12

>  <testResult>
20.3

$$$$
>  <compound>
Clc1cc(Br)ccc1-c1ccc(CNCC2CCNCC2)o1

>  <testResult>
62.4

$$$$
>  <compound>
O=C(/C=C/c1ccccc1)n1c(-c2ccccc2)nc2ccccc21

>  <testResult>
113

$$$$
>  <compound>
C1=C\CCCCN2CC[C@H]3[C@H](CCCC/C=C\CCCN4C[C@@H](CCCCC/1)C[C@@H]3C4)C2

>  <testResult>
93.9

$$$$
>  <compound>
COc1ccc2[nH]c(C(=O)OCc3ccc4c(Br)cc(Br)c(O)c4n3)cc2c1

>  <testResult>
-94.6

$$$$
>  <compound>
Cc1c(-c2ccc(-c3ccccc3F)cc2)nc2ccc(F)cc2c1C(=O)O

>  <testResult>
42.5

$$$$
>  <compound>
O=[N+]([O-])c1cccc([I+]c2ccccc2)c1

>  <testResult>
58.5

$$$$
>  <compound>
COC(=O)C(C)NC1=C(Cl)C(=O)C(NC(C)C(=O)OC)=C(Cl)C1=O (stereo unspecified)

>  <testResult>
101

$$$$
>  <compound>
COc1cc(C2CC(c3cccc(Nc4ccnc5cc(Cl)ccc45)c3)=NN2c2ccc(Cl)cc2)cc(OC)c1OC (stereo unspecified)

>  <testResult>
75.1

$$$$
>  <compound>
COc1cc2nccc(Oc3ccc(NC(=O)C4(C(=O)Nc5ccc(F)cc5)CC4)cc3)c2cc1OC(=O)c1ccc(N)cc1

>  <testResult>
45.3

$$$$
>  <compound>
COc1cc(/C=C/C(=O)c2ccc(NC(=O)CSc3nnc(-c4ccc(Cl)cc4)n3-c3ccccc3)cc2)cc(OC)c1OC

>  <testResult>
80

$$$$
>  <compound>
O=c1[nH]c2cc(Cl)c(Cl)cc2o1

>  <testResult>
113

$$$$
>  <compound>
CCCCCCCCCCCCCC(=S)NCCCC[C@H](NC(=O)OCc1ccccc1)C(=O)Nc1ccccc1

>  <testResult>
52.4

$$$$
>  <compound>
CC(=O)N[C@@H](CCC(N)=O)C(=O)O

>  <testResult>
112

$$$$
>  <compound>
COc1cccc2nc(Nc3cccc(NC(=O)c4cc(N5CCOCC5)cc(C(F)(F)F)c4)c3)ccc12

>  <testResult>
59.9

$$$$
>  <compound>
C=CCn1c(C)nc2cc(Nc3nc(N4CCCC4)nc4nc[nH]c34)ccc21

>  <testResult>
48.2

$$$$
>  <compound>
CCCCCCCCNC(C)C(O)c1ccc(SC(C)C)cc1 (stereo unspecified)

>  <testResult>
-25.5

$$$$
>  <compound>
NC(=S)N/N=C(/c1cccs1)C1CC1

>  <testResult>
105

$$$$
>  <compound>
CCCCN(CCCC)CCC(=O)c1ccc(OC)c2ccccc12

>  <testResult>
79.4

$$$$
>  <compound>
CN1CCN(Cc2ccc(NC(=O)c3cnc(F)c(C#Cc4cnc(N)c5ncccc45)c3)cc2C(F)(F)F)CC1

>  <testResult>
30.5

$$$$
>  <compound>
CC(=O)c1c(O)c(C)c(O)c2c1OC1=CC(=O)/C(=C(/C)N)C(=O)C12C (stereo unspecified)

>  <testResult>
100

$$$$
>  <compound>
C[C@]12CCc3nc(Nc4ccc(O)cc4)sc3C1=CC[C@@H]1[C@@H]2CC[C@]2(C)/C(=N/NC(N)=S)CC[C@@H]12

>  <testResult>
-62.4

$$$$
>  <compound>
Fc1cnccc1-c1nc2ccc3[nH]ncc3c2c2c1CCCC2

>  <testResult>
24.1

$$$$

----------
- Tested on: U251 CNS
- experimentalDetails: NCI-60 one-dose screen, 48 h
- condition: 10 µM unless noted
The panel holds about 83,000 compounds, 20% with a hit somewhere; the sample as a whole holds those more often. The source made the active and inactive calls. Rule for the calls: active = growth percent below 10; inactive = the rest.
Possible outcomes: active, inactive

>  <compound>
Cc1ccccc1N1C(c2ccccc2)=NNC12C=CC(=O)c1c(O)cccc12 (centres undefined)

>  <assayedSystem>
U251 CNS

>  <category>
inactive

$$$$
>  <compound>
CCN(CC)Cc1cc(Nc2ccnc3cc(Cl)ccc23)cc(-c2ccc(Cl)cc2)c1O

>  <assayedSystem>
U251 CNS

>  <category>
active

$$$$
>  <compound>
COc1ccc([C@@H]2[C@@H](Cl)C(=O)N2c2cc(OC)c(OC)c(OC)c2)cc1C

>  <assayedSystem>
U251 CNS

>  <category>
inactive

$$$$
>  <compound>
COc1ccc(C(=O)c2cc(C)c(OC)c(C)c2)cc1OC(=O)CCl

>  <assayedSystem>
U251 CNS

>  <category>
active

$$$$
>  <compound>
COS(=O)(=O)CCN(CCOS(C)(=O)=O)S(C)(=O)=O

>  <assayedSystem>
U251 CNS

>  <category>
inactive

$$$$
>  <compound>
O=C(Nc1ccccc1Cl)Oc1ccc2ccccc2c1

>  <assayedSystem>
U251 CNS

>  <category>
inactive

$$$$
>  <compound>
Cc1n(Cc2ccc3ccccc3n2)cc[n+]1Cc1ccc2ccccc2c1

>  <assayedSystem>
U251 CNS

>  <category>
inactive

$$$$
>  <compound>
Clc1ccc(-c2nc(Br)cn3ccnc23)cc1

>  <assayedSystem>
U251 CNS

>  <category>
inactive

$$$$
>  <compound>
COc1ccc(-c2nn(-c3cccc(Cl)c3)cc2/C=C2\C(=N)N(c3ccccc3)N=C2N)cc1

>  <assayedSystem>
U251 CNS

>  <category>
inactive

$$$$
>  <compound>
O=C(Cc1ccc(Nc2ccnc(C(F)(F)F)c2)cc1)N/N=C/c1ccccc1O

>  <assayedSystem>
U251 CNS

>  <category>
inactive

$$$$
>  <compound>
CCCCCCCCCCCCCCCCCC1=NC(C)(C)CN1C(C)(C)CO

>  <assayedSystem>
U251 CNS

>  <category>
active

$$$$
>  <compound>
Cc1[nH]n(C(=O)c2ccncc2)c(=O)c1N=Nc1ccc(O)c(C(=O)O)c1

>  <assayedSystem>
U251 CNS

>  <category>
inactive

$$$$
>  <compound>
Cc1c(-c2ccc(-c3ccccc3F)cc2)nc2ccc(F)cc2c1C(=O)O

>  <assayedSystem>
U251 CNS

>  <category>
inactive

$$$$
>  <compound>
CCN(CC)c1ccc(C(=N)c2ccc(N(C)C)cc2)cc1

>  <assayedSystem>
U251 CNS

>  <category>
active

$$$$
>  <compound>
CC(=O)Nc1nonc1-c1nc2ccccc2n1Cc1ccc(C(C)(C)C)cc1

>  <assayedSystem>
U251 CNS

>  <category>
inactive

$$$$
>  <compound>
CC1=C(C(=O)Nc2ccc(F)cc2)C(c2ccccc2)C2=C(CC(C)(C)CC2=O)N1 (centres undefined)

>  <assayedSystem>
U251 CNS

>  <category>
inactive

$$$$
>  <compound>
CC(=O)c1ccc(-n2c(-c3cc(-c4ccsc4)n[nH]3)n[nH]c2=S)cc1

>  <assayedSystem>
U251 CNS

>  <category>
inactive

$$$$
>  <compound>
NNC(=O)Cc1ccccc1

>  <assayedSystem>
U251 CNS

>  <category>
inactive

$$$$
>  <compound>
C[C@@H](C[C@H](CC1CC1)c1ccccc1)c1ccc2ccccc2c1

>  <assayedSystem>
U251 CNS

>  <category>
inactive

$$$$
>  <compound>
CCOP(=O)(O)OP(=O)(O)OCC

>  <assayedSystem>
U251 CNS

>  <category>
inactive

$$$$
>  <compound>
CCc1ccc2c(c1)N(CCO)C1=C(C(=O)OC1)C2c1cccc(Cl)c1 (centres undefined)

>  <assayedSystem>
U251 CNS

>  <category>
inactive

$$$$
>  <compound>
Cc1n(Cc2ccc3ccccc3n2)cc[n+]1Cc1ccc2ccccc2n1

>  <assayedSystem>
U251 CNS

>  <category>
inactive

$$$$
>  <compound>
Oc1ccc(Nc2ncnc3c2sc2ncccc23)cc1

>  <assayedSystem>
U251 CNS

>  <category>
inactive

$$$$
>  <compound>
COc1ccc(C(=O)c2c(N)nc3n2CCCC3)cc1OC

>  <assayedSystem>
U251 CNS

>  <category>
inactive

$$$$
>  <compound>
O=c1[nH]c2cc(Cl)c(Cl)cc2o1

>  <assayedSystem>
U251 CNS

>  <category>
inactive

$$$$
>  <compound>
CC(=O)Nc1ccc(Cl)cc1Cl

>  <assayedSystem>
U251 CNS

>  <category>
inactive

$$$$
>  <compound>
O=C(Nc1cnc(C(F)(F)F)cn1)c1cc(Cl)ccc1O

>  <assayedSystem>
U251 CNS

>  <category>
active

$$$$
>  <compound>
Cc1[nH]nc2ccc3nc(-c4ccc5[nH]ncc5c4)c4c(c3c12)CCCC4

>  <assayedSystem>
U251 CNS

>  <category>
inactive

$$$$
>  <compound>
CC(=O)OC1Oc2cc(C)c(C)cc2-c2oc(=O)c(-c3ccc(F)cc3)cc21 (centres undefined)

>  <assayedSystem>
U251 CNS

>  <category>
inactive

$$$$
>  <compound>
COc1ccc2[nH]c(C(=O)OCc3ccc4c(Br)cc(Br)c(O)c4n3)cc2c1

>  <assayedSystem>
U251 CNS

>  <category>
active

$$$$
>  <compound>
COc1cc(OC)cc(-c2n/c(=C\c3c(O)[nH]c4ccc(Cl)cc34)cc3c2=Nc2ccccc2-3)c1

>  <assayedSystem>
U251 CNS

>  <category>
inactive

$$$$
>  <compound>
CCN(CC)CCNc1c(C)cc(CO)c(Cl)c1C

>  <assayedSystem>
U251 CNS

>  <category>
inactive

$$$$
>  <compound>
COc1ccc(/C=C2\CCCC3=C2N=C2SC(C)=NN2C3c2ccc(OC)c(OC)c2)cc1OC (centres undefined)

>  <assayedSystem>
U251 CNS

>  <category>
inactive

$$$$
>  <compound>
CSC(=S)N/N=C(\C)c1ccccn1

>  <assayedSystem>
U251 CNS

>  <category>
inactive

$$$$
>  <compound>
O=C(C=P(c1ccccc1)(c1ccccc1)c1ccccc1)CCl

>  <assayedSystem>
U251 CNS

>  <category>
inactive

$$$$
>  <compound>
COc1ccc(-c2nsc3c2NC(=O)CC3c2ccc3c(c2)OCO3)cc1 (centres undefined)

>  <assayedSystem>
U251 CNS

>  <category>
inactive

$$$$
>  <compound>
COc1cccc2nc(Nc3cccc(NC(=O)c4ccc(N5CCN(C)CC5)c(C(F)(F)F)c4)c3)ccc12

>  <assayedSystem>
U251 CNS

>  <category>
active

$$$$
>  <compound>
N#Cc1nc(-c2ccc(Cl)cc2)cc(-c2ccc(Nc3nc(N4CCCCC4)nc(N4CCCCC4)n3)cc2)c1N

>  <assayedSystem>
U251 CNS

>  <category>
inactive

$$$$
>  <compound>
CCc1ccc(-c2ccc(NC3CCCCCC3)nn2)cc1S(N)(=O)=O

>  <assayedSystem>
U251 CNS

>  <category>
inactive

$$$$
>  <compound>
Cc1ccc(NC(=O)c2[nH]c(SCCN(C)C)nc2-c2ccc(F)cc2)cc1Nc1ccc2ncn(C)c(=O)c2c1

>  <assayedSystem>
U251 CNS

>  <category>
inactive

$$$$
>  <compound>
Oc1[nH]c2ccccc2c1/C=c1/ccc2c(c1)N=C(c1ccc(C(F)(F)F)cc1)N=2

>  <assayedSystem>
U251 CNS

>  <category>
inactive

$$$$
>  <compound>
CCOC(=O)c1ccc(NC(=O)NC2=NCCS2)cc1

>  <assayedSystem>
U251 CNS

>  <category>
inactive

$$$$
>  <compound>
FC(F)(F)C1=NNC(c2ccc3ccccc3c2)=NN1

>  <assayedSystem>
U251 CNS

>  <category>
inactive

$$$$
>  <compound>
CC(C)c1ccc(Cn2ccc3c4c(N)nc(NC5CC5)nc4ccc32)cc1

>  <assayedSystem>
U251 CNS

>  <category>
active

$$$$
